# Test system: NCI-H23
# ASSAY_SUMMARY: relative viability (nuclei count vs DMSO), 5 days (fraction); higher = more cells survive
# PARTICULARS: first compound 0.06325 µM
relative viability values for the molecules below.
METRIC_NAME: relative viability

INSERT INTO results (molecule, subject_of_test, data_value) VALUES
  ('CCNC(=O)c1noc(-c2cc(C(C)C)c(O)cc2O)c1-c1ccc(CN2CCOCC2)cc1 [Luminespib] + C[C@]1(O)C[C@@H](c2nc(-c3ccc4ccc(-c5ccccc5)nc4c3)c3c(N)nccn32)C1 [Linsitinib] (partner 1 µM)', 'NCI-H23', 0.172),
  ('CCNC(=O)c1noc(-c2cc(C(C)C)c(O)cc2O)c1-c1ccc(CN2CCOCC2)cc1 [Luminespib] + CC(C)C[C@H](NC(=O)[C@H](Cc1ccccc1)NC(=O)c1cnccn1)B(O)O [Bortezomib] (partner 0.002 µM)', 'NCI-H23', 0.119),
  ('CCNC(=O)c1noc(-c2cc(C(C)C)c(O)cc2O)c1-c1ccc(CN2CCOCC2)cc1 [Luminespib] + Cc1nc(Nc2ncc(C(=O)Nc3c(C)cccc3Cl)s2)cc(N2CCN(CCO)CC2)n1 [Dasatinib] (partner 0.075 µM)', 'NCI-H23', 0.118),
  ('CCNC(=O)c1noc(-c2cc(C(C)C)c(O)cc2O)c1-c1ccc(CN2CCOCC2)cc1 [Luminespib] + CS(=O)(=O)N1CCN(Cc2cc3nc(-c4cccc5[nH]ncc45)nc(N4CCOCC4)c3s2)CC1 [Pictilisib] (partner 1 µM)', 'NCI-H23', 0.134);

* * *

relative viability values for the compounds below.
# Test system: ABC-1
# ASSAY_SUMMARY: relative viability (nuclei count vs DMSO), 5 days (fraction); higher = more cells survive
# PARTICULARS: first compound 0.001 µM
METRIC_NAME: relative viability

INSERT INTO assay_data (compound, metric_name, data_value) VALUES
  ('Cc1cn(-c2cc(NC(=O)c3ccc(C)c(Nc4nccc(-c5cccnc5)n4)c3)cc(C(F)(F)F)c2)cn1 [Nilotinib] + C[C@]1(O)C[C@@H](c2nc(-c3ccc4ccc(-c5ccccc5)nc4c3)c3c(N)nccn32)C1 [Linsitinib] (partner 1 µM)', 'relative viability', 0.985),
  ('Cc1cn(-c2cc(NC(=O)c3ccc(C)c(Nc4nccc(-c5cccnc5)n4)c3)cc(C(F)(F)F)c2)cn1 [Nilotinib] + N=C(N)NC(=N)NCCc1ccccc1 [Phenformin] (partner 250 µM)', 'relative viability', 0.219),
  ('Cc1cn(-c2cc(NC(=O)c3ccc(C)c(Nc4nccc(-c5cccnc5)n4)c3)cc(C(F)(F)F)c2)cn1 [Nilotinib] + NC(=O)Nc1cc(-c2cccc(F)c2)sc1C(=O)N[C@H]1CCCNC1 [AZD7762] (partner 0.2 µM)', 'relative viability', 0.667),
  ('Cc1cn(-c2cc(NC(=O)c3ccc(C)c(Nc4nccc(-c5cccnc5)n4)c3)cc(C(F)(F)F)c2)cn1 [Nilotinib] + CS(=O)(=O)CCNCc1ccc(-c2ccc3ncnc(Nc4ccc(OCc5cccc(F)c5)c(Cl)c4)c3c2)o1 [Lapatinib] (partner 2 µM)', 'relative viability', 0.925);

* * *

# Tested on: NCI-H1915
# ASSAY_SUMMARY: relative viability (nuclei count vs DMSO), 5 days (fraction); higher = more cells survive
# PARTICULARS: first compound 6.325 µM
relative viability values for the molecules below.
METRIC_NAME: relative viability

INSERT INTO assay_data (molecule, data_value) VALUES
  ('Cc1csc(=NC2CCCCC2)n1/N=C/c1ccc(O)c(O)c1O [MIM1] + CCNC(=O)c1noc(-c2cc(C(C)C)c(O)cc2O)c1-c1ccc(CN2CCOCC2)cc1 [Luminespib] (partner 0.01 µM)', 0.579),
  ('Cc1csc(=NC2CCCCC2)n1/N=C/c1ccc(O)c(O)c1O [MIM1] + CC(=O)c1c(C)c2cnc(Nc3ccc(N4CCNCC4)cn3)nc2n(C2CCCC2)c1=O [Palbociclib] (partner 0.5 µM)', 0.395),
  ('Cc1csc(=NC2CCCCC2)n1/N=C/c1ccc(O)c(O)c1O [MIM1] + CC(C)C[C@H](NC(=O)[C@H](Cc1ccccc1)NC(=O)c1cnccn1)B(O)O [Bortezomib] (partner 0.002 µM)', 0.461),
  ('Cc1csc(=NC2CCCCC2)n1/N=C/c1ccc(O)c(O)c1O [MIM1] + Cc1nc(Nc2ncc(C(=O)Nc3c(C)cccc3Cl)s2)cc(N2CCN(CCO)CC2)n1 [Dasatinib] (partner 0.075 µM)', 0.269),
  ('Cc1csc(=NC2CCCCC2)n1/N=C/c1ccc(O)c(O)c1O [MIM1] + C[C@@H](Oc1cc(-c2cnn(C3CCNCC3)c2)cnc1N)c1c(Cl)ccc(F)c1Cl [Crizotinib] (partner 1 µM)', 0.648);
